Please go through the items and note down their CC50 at 48 h.
assay: Cytotoxicity against human HepG2 cells assessed as reduction in cell viability incubated for 48 hrs by MTT assay; type: cell-based

1. CC[C@@H](CO)NCCN[C@@H](CC)CO = > 400 µg/mL
2. CC(=O)OC[C@H]1O[C@H](OC[C@@H](Cn2cc(CN(c3nc(-c4cccc([N+](=O)[O-])c4)no3)C3CCCCC3)nn2)OC(C)=O)C=C[C@@H]1OC(C)=O = > 200 µg/mL
3. CC(=O)OC[C@H]1O[C@H](OC[C@@H](Cn2cc(CN(c3nc(-c4ccc([N+](=O)[O-])cc4)no3)C3CCCCC3)nn2)OC(C)=O)C=C[C@@H]1OC(C)=O = > 200 µg/mL

Dear reader, for each entry below, please note its CC50 at 48 h.
1. CC(=O)OC[C@H]1O[C@H](OC[C@@H](CN=[N+]=[N-])OC(C)=O)C=C[C@@H]1OC(C)=O
2. C#CCOc1ccc(-c2noc(N(CC#C)C3CCCCC3)n2)cc1
3. CC(=O)OC[C@H]1O[C@H](OC[C@@H](Cn2cc(CN(c3nc(-c4ccc(F)cc4)no3)C3CCCCC3)nn2)OC(C)=O)C=C[C@@H]1OC(C)=O
4. CCCCCCCCCCc1cn(C[C@@H](CO[C@@H]2C=C[C@H](OC(C)=O)[C@@H](COC(C)=O)O2)OC(C)=O)nn1
5. C#CCN(c1nc(-c2cccc([N+](=O)[O-])c2)no1)C1CCCCC1

Outgoing:
1. > 200 µg/mL
2. > 200 µg/mL
3. 28.8 µg/mL
4. 59 µg/mL
5. 45.5 µg/mL
